Tested on: NCI-H23
Assay: NCI tumour cell line growth inhibition, 48 h
The source made the active and inactive calls. Cut-off read from the data, not from the text of the source: active = GI50 up to about 1.1 µM and inactive = higher.
Entries annotated with measured GI50

The examples below pair each entry with its known result.
Fc1ccc(C2SCc3nc4ccccc4n32)cc1Cl (stereo unspecified)	22.5 µM (inactive)
COc1cccc(CC(C)NCC(O)c2ccc(O)c(O)c2)c1 (stereo unspecified)	33.7 µM (inactive)
O=C(CC1(O)C(=O)Nc2c(Cl)ccc(Cl)c21)c1ccc(Cl)cc1 (stereo unspecified)	21.6 µM (inactive)
Nc1nc2cc3nc(N)c(N)nc3cc2nc1N	> 100 µM (inactive)
O=[N+]([O-])/C(C(Cl)=C(Cl)Cl)=C(\Nc1ccccc1)n1nnc2ccccc21	25.9 µM (inactive)
NC1CC(=O)c2c(I)sc(I)c21 (stereo unspecified)	17.1 µM (inactive)

Query string: Write down GI50 measured for item NC(=O)c1csc(C2C=CC(CO)O2)n1 (stereo unspecified)
Result string: > 100 µM (inactive)

Query string: Let me know recorded GI50 for "CN(Cc1cccc2ccsc12)/N=C\c1ccc(Cl)cc1" , thanks.
Result string: 28.4 µM (inactive)

Query string: Return reported GI50. Input molecule: COc1cc(/C=C2/SC(c3ccccc3)N(c3ccccc3Cl)C2=O)cc(OC)c1OC (stereo unspecified)
Result string: 22.8 µM (inactive)

Query string: Tell us which GI50 value is on record for "O=C1C(Cl)=C(NCCN2CCOCC2)C(=O)c2ncccc21"
Result string: 1.62 µM (inactive)

Query string: Give the reported GI50 for this molecule. CC(C)(C)N/N=C(\C(=O)NC1=C(Cl)C(=O)c2ccccc2C1=O)C1C=CCS1(=O)=O (stereo unspecified)
Result string: 8.15 µM (inactive)
